The reported numbers originate from patent US20250289789A1.

target: CDK4-NanoLuc fusion with CCND1 in 293T or 293 cells (Homo sapiens, UniProt P11802); construct: host or cells: 293T (ATCC CRL-3216) or 293 (ATCC CRL-1573); assay: NanoBRET Target Engagement (TE) Intracellular Kinase Assay, CDK4/CCND1; assay type: cell-based; conditions: NanoBRET TE intracellular kinase assay, 2-hour incubation, read-out: NanoBRET-CDK4/D1 IC50
Sequence (P11802 whole entry, the tested form may be a part): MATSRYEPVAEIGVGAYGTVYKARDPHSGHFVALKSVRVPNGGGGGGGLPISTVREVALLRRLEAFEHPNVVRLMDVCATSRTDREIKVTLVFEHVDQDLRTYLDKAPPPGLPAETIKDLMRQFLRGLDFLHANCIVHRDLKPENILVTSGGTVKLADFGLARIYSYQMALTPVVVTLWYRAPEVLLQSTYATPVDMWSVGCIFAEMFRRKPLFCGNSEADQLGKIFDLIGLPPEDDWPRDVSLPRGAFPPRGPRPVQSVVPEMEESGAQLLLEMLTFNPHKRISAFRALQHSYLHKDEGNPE
Sequence (P24385 whole entry partner, the tested form may be a part): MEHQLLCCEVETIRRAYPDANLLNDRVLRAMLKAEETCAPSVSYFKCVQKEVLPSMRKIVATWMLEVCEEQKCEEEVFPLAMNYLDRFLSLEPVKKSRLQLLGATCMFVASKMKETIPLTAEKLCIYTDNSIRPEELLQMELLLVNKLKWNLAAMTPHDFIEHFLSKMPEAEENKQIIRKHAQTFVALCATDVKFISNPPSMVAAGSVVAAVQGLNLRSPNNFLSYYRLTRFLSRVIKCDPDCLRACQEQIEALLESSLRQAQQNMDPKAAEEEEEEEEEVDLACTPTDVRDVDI
outcome_measure: IC50 (µM)
Value expressed in µM; do not type the unit.

Please review the following examples before continuing.
Query: Which IC50 is listed for "CC(C)NC(=O)O[C@@H]1CC[C@H](c2cc(NC(=O)Cc3ccc(O)c(C=O)c3)n[nH]2)C1" ?
Reply: 0.0526

Query: Do the same for "CC(=O)Nc1cccc(OCC(=O)Nc2cc([C@H]3CC[C@@H](OC(=O)NC(C)C)C3)[nH]n2)c1C=O" please
Reply: 4.17

Query: Now the compound "CC(C)NC(=O)O[C@@H]1CC[C@H](c2cc(NC(=O)Cc3ccc(C=O)c(O)c3)n[nH]2)C1"
Reply: 0.00691

Query: Would you mind doing "CC(C)NC(=O)O[C@@H]1CC[C@H](c2cc(NC(=O)c3cc(-c4ccc(O)c(C=O)c4)nn3C)n[nH]2)C1" as well?
Reply: 3.07

# next compound below
Query: Entry "Cc1cc(O)c(C=O)c(OCC(=O)Nc2cc([C@H]3CC[C@@H](OC(=O)N4C5CCC4CC5)C3)[nH]n2)c1" has what IC50?
Reply: 7.36

* * *

This section presents compounds with their documented pIC50 values.
test system: Phospho-Rb Ser807/811 in OVCAR3 cells; experiment: OVCAR3 Phospho-Rb Ser807/811 HTRF assay; assay type: cell-based; conditions: Homo sapiens, OVCAR-3, 1 h, OVCAR3 cells, Phospho-Rb Ser807/811 HTRF, 1 hour incubation; read-out: pRb-OVCAR3 IC50
Just the number, please; pIC50 means minus log10 of the concentration in mol/L.

Study these solved cases before continuing.
Query: For the compound "COc1cc(O)c(C=O)c(OCC(=O)Nc2cc([C@H]3CC[C@@H](OC(=O)N4CC[C@@H](F)C4)C3)[nH]n2)c1" , what pIC50 is on record?
Reply: 7.66

Query: What do you have for "CC(C)NC(=O)O[C@@H]1CC[C@H](c2cc(NC(=O)OCCc3cccc(O)c3C=O)n[nH]2)C1" ?
Reply: 5.38

Next:
Query: Tell me the measured pIC50 of "COc1cc(O)c(C=O)c(OCC(=O)Nc2cc([C@H]3CC[C@@H](OC(=O)NC45CC(C4)C5)C3)[nH]n2)c1" , please.
Reply: 7.58

Query: Ok, now "COc1cc(O)c(C=O)c(OCC(=O)Nc2cc([C@H]3CC[C@@H](OC(=O)N(C)CC(F)F)C3)[nH]n2)c1"
Reply: 7.73

Query: # iterate: "COc1cc(O)c(C=O)c(OCC(=O)Nc2cc([C@H]3CC[C@@H](OC(=O)N4CCCC4)C3)[nH]n2)c1"
Reply: 7.48

Query: And "CC1(NC(=O)O[C@@H]2CC[C@H](c3cc(Nc4nccc5c(C=O)c(O)ccc45)n[nH]3)C2)CC1" ?
Reply: 7.29

* * *

molecular target: CDK2-NanoLuc fusion with CCNE1 in 293T or 293 cells (Homo sapiens, UniProt P24941); construct: host or cells: 293T (ATCC CRL-3216) or 293 (ATCC CRL-1573); assay: NanoBRET Target Engagement (TE) Intracellular Kinase Assay, CDK2/CCNE1; assay type: cell-based; details: NanoBRET TE intracellular kinase assay, 2-hour incubation, read-out: NanoBRET-CDK2/E1 IC50
Lab note: cut-off is 10 nM. Strictly less in IC50 is YES. Exactly 10 nM or more is NO.

# example entries with known answers
Query: Say whether its IC50 is strictly beneath 10 nM. Entry: "COc1cc(O)c(C=O)c(OCC(=O)Nc2cc([C@H]3CC[C@@H](OC(=O)N4CCC[C@H](C#N)C4)C3)[nH]n2)c1"
Reply: YES

Query: Again, but for "COc1cc(O)c(C=O)c(OCC(=O)Nc2cc([C@H]3CC[C@@H](OC(=O)N4CCCC4)C3)[nH]n2)c1"
Reply: YES

Query: Now try "CCN(CC#N)C(=O)O[C@@H]1CC[C@H](c2cc(NC(=O)COc3cc(OC)cc(O)c3C=O)n[nH]2)C1" .
Reply: YES

Next:
Query: Please state whether IC50 is below 10 nM for "CC(C)NC(=O)O[C@@H]1CC[C@H](c2cc(NC(=O)CCc3cccc(O)c3C=O)n[nH]2)C1"
Reply: NO

Query: Query "CCCNC(=O)O[C@H]1C[C@@H](c2cc(NC(=O)COc3cc(OC)cc(OC)c3C=O)n[nH]2)C1" next
Reply: YES

Query: Now consider "CC(C)NC(=O)O[C@@H]1CC[C@H](c2cc(NC(=O)c3cc(-c4cccc(O)c4C=O)nn3C3CC3)n[nH]2)C1" and answer again.
Reply: YES

Query: What about this molecule? "Cc1cc(O)c(C=O)c(OCC(=O)Nc2cc([C@H]3CC[C@@H](OC(=O)NC4(C)CC4)C3)[nH]n2)c1"
Reply: YES

Query: Follow-up item: "COCc1cc(O)c(C=O)c(-c2cc(C(=O)Nc3cc([C@H]4CC[C@@H](OC(=O)NC(C)C)C4)[nH]n3)n(C)n2)c1"
Reply: YES

Query: Now give it for "COc1cc(O)c(C=O)c(OCC(=O)Nc2cc([C@H]3CC[C@@H](OC(=O)N4CC5(CCN5C)C4)C3)[nH]n2)c1" too.
Reply: NO

Query: Now this one: CC(C)NC(=O)O[C@@H]1CC[C@H](c2cc(NC(=O)C3Cc4ccc(O)c(C=O)c4O3)n[nH]2)C1 (some centres unmarked)
Reply: NO

Query: Please answer likewise for "COc1cc(O)c(C=O)c(OCC(=O)Nc2cc([C@H]3CC[C@@H](OC(=O)NCc4cnn(C)c4)C3)[nH]n2)c1"
Reply: NO

* * *

molecular target: CDK1-NanoLuc fusion with CCNB1 in 293T or 293 cells (Homo sapiens, UniProt P06493); construct: host or cells: 293T (ATCC CRL-3216) or 293 (ATCC CRL-1573); assay: NanoBRET Target Engagement (TE) Intracellular Kinase Assay, CDK1/CCNB1; format: cell-based; conditions: NanoBRET TE intracellular kinase assay, 2-hour incubation, read-out: NanoBRET-CDK1/B1 IC50
Sequence (P06493 whole entry, the tested form may be a part): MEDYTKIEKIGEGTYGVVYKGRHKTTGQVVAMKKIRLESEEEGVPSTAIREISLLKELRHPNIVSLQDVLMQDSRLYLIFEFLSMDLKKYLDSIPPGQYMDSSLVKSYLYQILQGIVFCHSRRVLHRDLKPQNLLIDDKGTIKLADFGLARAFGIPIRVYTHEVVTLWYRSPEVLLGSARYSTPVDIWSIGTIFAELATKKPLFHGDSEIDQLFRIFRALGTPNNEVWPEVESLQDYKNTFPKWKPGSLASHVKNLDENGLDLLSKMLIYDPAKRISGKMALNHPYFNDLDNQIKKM
Sequence (P14635 whole entry partner, the tested form may be a part): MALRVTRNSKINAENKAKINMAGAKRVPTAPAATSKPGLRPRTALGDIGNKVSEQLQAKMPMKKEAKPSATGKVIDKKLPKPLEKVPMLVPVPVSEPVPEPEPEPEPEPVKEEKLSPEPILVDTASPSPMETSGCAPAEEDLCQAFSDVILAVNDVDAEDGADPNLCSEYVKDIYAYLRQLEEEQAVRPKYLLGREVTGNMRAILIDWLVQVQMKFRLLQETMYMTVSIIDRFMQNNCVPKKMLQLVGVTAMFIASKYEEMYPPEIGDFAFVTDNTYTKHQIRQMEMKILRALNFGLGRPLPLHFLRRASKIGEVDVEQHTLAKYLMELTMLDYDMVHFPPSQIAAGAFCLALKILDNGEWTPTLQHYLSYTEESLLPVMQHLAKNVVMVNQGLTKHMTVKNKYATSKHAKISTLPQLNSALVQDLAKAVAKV
Consider the following compounds and their measured pIC50 readings.
In textbook form, pIC50 equals minus log to base ten of the concentration in mol/L.

Record excerpt, results attached:
Query: What value of pIC50 on CDK1-NanoLuc fusion with CCNB1 in 293T or 293 cells (Homo sapiens, UniProt P06493) does "COc1cc(O)c(C=O)c(OCC(=O)Nc2cc([C@H]3CC[C@@H](OC(=O)N4CCCO4)C3)[nH]n2)c1" have?
Reply: 7.54

Query: And what about the compound "COc1cc(O)c(C=O)c(OCC(=O)Nc2cc([C@H]3C[C@@H](OC(=O)N4CCCC4)C3)[nH]n2)c1" ?
Reply: 7.44

Query: Okay, and "CC(C)NC(=O)O[C@@H]1CC[C@H](c2cc(NC(=O)c3cnn(-c4cccc(O)c4C=O)c3)n[nH]2)C1" ?
Reply: 7.13

Query: Also "Cc1cc(O)c(C=O)c(OCC(=O)Nc2cc([C@H]3CC[C@@H](OC(=O)N4C5COCC4C5)C3)[nH]n2)c1" ?
Reply: 7.70

Query: Ok, now "COc1cc(O)c(C=O)c(OCC(=O)Nc2cc([C@H]3CC[C@@H](OC(=O)N4C5CCC4CC5)C3)[nH]n2)c1"
Reply: 8.71

Others:
Query: Give recorded pIC50 with CDK1-NanoLuc fusion with CCNB1 in 293T or 293 cells (Homo sapiens, UniProt P06493) for the following compound: "CC(C)NC(=O)O[C@@H]1CC[C@H](c2cc(NC(=O)Cc3cnn(-c4cccc(O)c4C=O)c3)n[nH]2)C1"
Reply: 7.12

* * *

molecular target: CDK4-NanoLuc fusion with CCND1 in 293T or 293 cells (Homo sapiens); construct: host or cells: 293T (ATCC CRL-3216) or 293 (ATCC CRL-1573); assay: NanoBRET Target Engagement (TE) Intracellular Kinase Assay, CDK4/CCND1; format: cell-based; conditions: NanoBRET TE intracellular kinase assay, 2-hour incubation, read-out: NanoBRET-CDK4/D1 IC50
Reported pIC50 values for the following compounds.
# pIC50 is unitless: minus log10 of the molar concentration; print number only

Query: Given the compound COc1ccc(-c2cc(C(=O)Nc3cc([C@H]4CC[C@@H](OC(=O)NC(C)C)C4)[nH]n3)n(C)n2)c(C=O)c1O [Compound 74] , what is its reported pIC50?
Reply: 5.40

Query: Now this one: CC(C)NC(=O)O[C@@H]1CC[C@H](c2cc(NC(=O)c3cc(CCc4cccc(O)c4C=O)nn3C)n[nH]2)C1 [Compound 30]
Reply: 5.50

Query: Record: COc1cc(O)c(C=O)c(Oc2ccnc(Nc3cc([C@H]4CC[C@@H](OC(=O)NC(C)C)C4)[nH]n3)c2)c1 [Compound 76]
Reply: 5.19
